Reference source for all entries: PubChem BioAssay AID743440

Assay: toxicity toward HepG2 liver cells – cell-based, plate reader, dry powder, set 11, cytotoxicity control, dose response (AID 743440)
Details: HepG2 viability, ATP luminescence (CellTiter-Glo), 72 h; at 26 µM (top of the series)
Attribute: activity change, negative = cytotoxicity
outcomeMeasure: activity change, negative = cytotoxicity (%)

compound: O=C(COc1ccc(C(=O)N2CCN(C(=O)C3CC3)CC2)cc1)Nc1cccc(C(F)(F)F)c1
outcomeMeasure: activity change, negative = cytotoxicity
displayUnit: %
observedValue: -22.9

compound: COC(=O)CCCN(C)C(=O)c1ccc(OCC(=O)Nc2cccc(OC)c2)cc1
outcomeMeasure: activity change, negative = cytotoxicity
displayUnit: %
observedValue: -8.54

compound: O=C(COc1ccccc1C(=O)NCc1ccccc1)Nc1ccccc1
outcomeMeasure: activity change, negative = cytotoxicity
displayUnit: %
observedValue: -9.2

compound: O=C(O)CSc1c2c(nc3cc(C(=O)NCc4cccs4)ccc13)CCCC2
outcomeMeasure: activity change, negative = cytotoxicity
displayUnit: %
observedValue: -3.5

compound: CCOC(=O)C1CCN(C(=O)c2ccc(OCC(=O)N3CCOCC3)c(OC)c2)CC1
outcomeMeasure: activity change, negative = cytotoxicity
displayUnit: %
observedValue: -12.3

compound: O=C(COc1ccc(C(=O)NCC2CCCO2)cc1)Nc1cccc(C(F)(F)F)c1 (stereo not given)
outcomeMeasure: activity change, negative = cytotoxicity
displayUnit: %
observedValue: -9.73

compound: Cn1c(=O)cc(SCC(=O)NCc2ccco2)c2ccccc21
outcomeMeasure: activity change, negative = cytotoxicity
displayUnit: %
observedValue: 2.16

compound: CN(C(=O)COc1ccc(Cl)cc1C(N)=O)c1ccccc1
outcomeMeasure: activity change, negative = cytotoxicity
displayUnit: %
observedValue: 6.24

compound: CN(C)c1ccc(NC(=O)COc2ccccc2C(=O)N2CCOCC2)cc1
outcomeMeasure: activity change, negative = cytotoxicity
displayUnit: %
observedValue: 8.33

compound: COc1ccc(OCCNC(=O)c2ccccc2OCC(=O)Nc2ccc(NC(C)=O)cc2)cc1
outcomeMeasure: activity change, negative = cytotoxicity
displayUnit: %
observedValue: -7.48

---

Test: toxicity toward HepG2 liver cells – cell-based, plate reader, dry powder, set 11, cytotoxicity control, dose response (AID 743440)
Settings: HepG2 viability, ATP luminescence (CellTiter-Glo), 72 h; at 26 µM (top of the series)

structureAsSmiles: O=C(CSc1c2c(nc3ccc(Cl)cc13)CCCC2)N1CCNC1=O
activity change, negative = cytotoxicity [%]: -15.2
//
structureAsSmiles: Cc1ccc2nc(Cl)cc(SCC(=O)NCc3ccco3)c2c1
activity change, negative = cytotoxicity [%]: -16.7
//
structureAsSmiles: CN(CCOc1ccccc1)C(=O)c1ccc(OCC(=O)Nc2cccc(C(F)(F)F)c2)cc1
activity change, negative = cytotoxicity [%]: -1.92
//
structureAsSmiles: CCN(CC)C(=O)CSc1c2c(nc3ccc(Cl)cc13)CCCC2
activity change, negative = cytotoxicity [%]: -8.05
//
structureAsSmiles: CN(C(=O)COc1ccccc1C(=O)Nc1ccccc1)c1ccccc1
activity change, negative = cytotoxicity [%]: -11.2
//
structureAsSmiles: O=C(CSc1c2c(nc3ccc(Cl)cc13)CCCC2)N1CCCCC1
activity change, negative = cytotoxicity [%]: -19.8
//
structureAsSmiles: CCOc1ccc(NC(=O)COc2ccc(C(=O)N3CCC(C(N)=O)CC3)cc2OC)cc1
activity change, negative = cytotoxicity [%]: -12.6
//
structureAsSmiles: NC(=O)C1CCN(C(=O)c2ccc(OCC(=O)Nc3cccc(C(F)(F)F)c3)cc2)CC1
activity change, negative = cytotoxicity [%]: -3.5
//
structureAsSmiles: O=C(COc1ccc(C(=O)N2CCC2)cc1)Nc1cccc(C(F)(F)F)c1
activity change, negative = cytotoxicity [%]: -3.29
//
structureAsSmiles: COc1ccc(N(Cc2cccs2)C(=O)COc2ccccc2C(=O)Nc2ccccc2)cc1
activity change, negative = cytotoxicity [%]: -1.88
//
structureAsSmiles: CCOC(=O)C1CCN(C(=O)c2ccc(OCC(=O)Nc3ccc(OCC)cc3)c(OC)c2)CC1
activity change, negative = cytotoxicity [%]: -2.93
//
structureAsSmiles: O=C(CSc1cccc2cccnc12)NCc1ccco1
activity change, negative = cytotoxicity [%]: 9.13
//
structureAsSmiles: CN(C(=O)COc1ccccc1C(N)=O)c1ccccc1
activity change, negative = cytotoxicity [%]: 2.01
//
structureAsSmiles: Cc1ccc(NC(=O)COc2ccccc2C(=O)NCCN(C)C)cc1
activity change, negative = cytotoxicity [%]: -14.7
//
structureAsSmiles: Cn1cc(SCC(=O)NCc2ccco2)c2ccccc21
activity change, negative = cytotoxicity [%]: -5.75
//
structureAsSmiles: O=C(CSc1ccc2ccccc2n1)NCc1ccco1
activity change, negative = cytotoxicity [%]: -2.89
